# targetOrTestSystem: FK506-binding protein 12 (human, UniProt P62942 1-108)
# Sequence (P62942 whole entry): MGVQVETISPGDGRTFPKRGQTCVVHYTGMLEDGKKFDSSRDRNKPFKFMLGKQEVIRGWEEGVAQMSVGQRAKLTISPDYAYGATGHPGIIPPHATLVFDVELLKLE
# protocol: fluorescence polarisation
Non-standard residues stand in square brackets, D forms with d. *: point of attachment. Dkb = 3,3-dimethyl-2-ketobutyryl, CC(C)(C)C(=O)C(=O)*; d(β3hF) = N[C@@H](CC(=O)O)Cc1ccccc1; Pip = O=C(O)[C@@H]1CCCCN1
resultType: log10 of IC50 (log10 of the value in µM)
In plain terms, each number is the log10 of measured IC50 in µM.

Ask: May I ask what log10 of IC50 has been recorded for cyclo(PP[dA][Dkb][Pip][d(β3hF)]Q) (also: 4 Dkb: ester to 3) [rapalog 11 (R3 Pro, R4 Pro)] ?
Result: 1.43

Ask: May I ask what log10 of IC50 has been recorded for cyclo(PK[dA][Dkb][Pip][d(β3hF)]Q) (also: ester bond between residues 3 and 4) [rapalog 11 (R3 Lys, R4 Pro)] ?
Result: 1.76

Ask: May I ask what log10 of IC50 has been recorded for cyclo(ADP[dA][Dkb][Pip][d(β3hF)]Q) (also: 5 Dkb: ester to 4) [rapalog 12 (R3 Pro, R4 Asp)] ?
Result: 0.48

Ask: May I ask what log10 of IC50 has been recorded for cyclo([dV]K[dA][Dkb][Pip][d(β3hF)]Q) (also: ester bond between residues 3 and 4) [rapalog 11 (R3 Lys, R4 D-Val)] ?
Result: 1.90

Ask: May I ask what log10 of IC50 has been recorded for cyclo(A[dV]P[dA][Dkb][Pip][d(β3hF)]Q) (also: 5 Dkb: ester to 4) [rapalog 12 (R3 Pro, R4 D-Val)] ?
Result: 1.63

Entry source: paper PMC3171579
